Test system: 633275-114-R-J1-PDC complex spheroids, viability
Test: Anticancer human tumor 633275-114-R-J1-PDC patient-derived endometrial adenocarcinoma cell line growth inhibition [GQUAD]
Details: second compound 3.16 µM; first compound 1 µM; stronger effect = lower value
REPORTED_PROPERTY: viability, T/C (%)
# number only, unit % dropped from output

# count of solved cases: 2
- O=C(c1cc(Cc2n[nH]c(=O)c3ccccc23)ccc1F)N1CCN(C(=O)C2CC2)CC1 + Cc1cnc(CNC(=O)c2c(=O)c3ccc(N4CCCN(C)CC4)nc3n3c2sc2ccccc23)cn1: 30.9
- Cc1cccc(N(C)C(=O)C2C(O)CCN2c2nc(C)cc(C(F)(F)F)c2C#N)c1 (stereo not drawn) + CN(C)c1ccc(Nc2c3ccc(NC(=O)CCN4CCCC4)cc3nc3cc(NC(=O)CCN4CCCC4)ccc23)cc1: 82.4

Let us examine a further case.
Assay 633275-114-R-J1-PDC complex spheroids, viability, sample COc1ncnc(C2CC2)c1-c1ncc2cnn(Cc3ccc(-c4nc(C(F)(F)F)cn4C(C)C)cc3)c2n1 + Cc1[nH]c2ccc(F)cc2c1-c1nc2c3cccnc3c3ncccc3c2[nH]1 , viability, T/C read: 62.7

* * *

Test system: 633275-114-R-J1-PDC complex spheroids, viability
Assay: Anticancer human tumor 633275-114-R-J1-PDC cell line growth inhibition [GQUAD];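 also: spheroids exposed to the agents for seven days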
Details: curve of first compound; second compound 3.16 µM
Text: DNA G-quadruplex Stabilizer Agents in Combinations in Complex Spheroids A high-throughput screen of multi-cell type tumor spheroids was designed to identify active combinations of DNA G-quadruplex stabilizer agents and targeted small molecules. […] Compounds. […] If the clinical Cmax for an agent had not been determined, the highest concentration tested was 10 microM. […]
Reported IC50 by item:
# number only, unit nM dropped from output

- COc1cc(C2c3cc4c(cc3C(OC3OC5COC(C)OC5C(O)C3O)C3COC(=O)C23)OCO4)cc(OC)c1O (stereo not given) + Cc1[nH]c2ccc(F)cc2c1-c1nc2c3cccnc3c3ncccc3c2[nH]1: 158

Let us examine a further case.
Assay 633275-114-R-J1-PDC complex spheroids, viability, sample CC1COCCN1c1cc(C2(O)CC3CCC(C2)O3)c2cnn(-c3ccn[nH]3)c2n1 (stereo not given) + CN(C)c1ccc(Nc2c3ccc(NC(=O)CCN4CCCC4)cc3nc3cc(NC(=O)CCN4CCCC4)ccc23)cc1 , IC50 read: 53.2

* * *

Reported viability, T/C by item:
Test system: 633275-114-R-J1-PDC complex spheroids, viability
Test: Anticancer human tumor 633275-114-R-J1-PDC cell line growth inhibition [GQUAD];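 also: spheroids exposed to the agents for seven days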;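 as to viability, T/C: percent of DMSO vehicle control viability which is 100%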
Settings: second compound 10 µM; first compound 3.16 µM; stronger effect = lower value
From the text: DNA G-quadruplex Stabilizer Agents in Combinations in Complex Spheroids A high-throughput screen of multi-cell type tumor spheroids was designed to identify active combinations of DNA G-quadruplex stabilizer agents and targeted small molecules. […] Compounds. […] If the clinical Cmax for an agent had not been determined, the highest concentration tested was 10 microM. […]
# number only, unit % dropped from output

# count of solved cases: 2
* CC1COCCN1c1cc(C2(O)CC3CCC(C2)O3)c2cnn(-c3ccn[nH]3)c2n1 (stereo not drawn) + Cc1[nH]c2ccc(F)cc2c1-c1nc2c3cccnc3c3ncccc3c2[nH]1 | 15.1
* CC(C)n1c(=O)n(C)c2cnc3cc(F)c(-c4ccc(OCCCN5CCCCC5)nc4)cc3c21 + Cc1cnc(CNC(=O)c2c(=O)c3ccc(N4CCCN(C)CC4)nc3n3c2sc2ccccc23)cn1 | 31.4

Let us examine a further case.
# viability, T/C of O=C(c1cc(Cc2n[nH]c(=O)c3ccccc23)ccc1F)N1CCN(C(=O)C2CC2)CC1 + CN(C)c1ccc(Nc2c3ccc(NC(=O)CCN4CCCC4)cc3nc3cc(NC(=O)CCN4CCCC4)ccc23)cc1 = 29
